System: COLO 205 colon
assaySummary: NCI-60 one-dose screen, 48 h (100 = growth as untreated, 0 = no growth, -100 = all killed)
runParameters: 10 µM unless noted
The panel holds about 83,000 compounds, 20% with a hit somewhere; the sample as a whole holds those more often.

molecule: COC(=O)N[C@@H](C)CNc1nccc(-c2cn(C(C)C)nc2-c2cc(Cl)cc(NS(C)(=O)=O)c2F)n1
targetOrTestSystem: COLO 205 colon
growth, %: 4.94

molecule: COc1cccc(Nc2ncnn3ccc(CN4CC[C@@H](N)[C@H](O)C4)c23)c1
targetOrTestSystem: COLO 205 colon
growth, %: 34.6

molecule: CCN(CCCOc1ccc2c(Nc3cc(CC(=O)Nc4cccc(F)c4)[nH]n3)ncnc2c1)CCOP(=O)(O)O
targetOrTestSystem: COLO 205 colon
growth, %: -7.95

molecule: C/C(=N\NC(=O)Cn1c(-c2ccc(S(C)(=O)=O)cc2)nc2ccccc21)c1ccc(Cl)cc1
targetOrTestSystem: COLO 205 colon
growth, %: 93.4

molecule: COC(=O)C1=C(C(=O)OC)C23C=C(C)C1C2=C(C)C1(CC1)[C@@](C)(O)C3=O (stereo partly drawn)
targetOrTestSystem: COLO 205 colon
growth, %: -51.9

molecule: COC(=O)CNC(=O)[C@@H](OC)[C@@H]1Cc2cc3cc(OC4CC(OC5CC(O)C(O)C(C)O5)C(O)C(C)O4)c(C)c(O)c3c(O)c2C(=O)[C@H]1OC1CC(OC2CC(OC3CC(C)(O)C(O)C(C)O3)C(O)C(C)O2)C(O)C(C)O1 (stereo partly drawn)
targetOrTestSystem: COLO 205 colon
growth, %: -17.6

molecule: COc1ccc2nc3cc(Cl)ccc3c(Nc3ccc(N(C)C)cc3)c2c1
targetOrTestSystem: COLO 205 colon
growth, %: 84.6

molecule: O=C(/C=C/c1ccc2c(c1)OCO2)c1c(O)c2ccccc2oc1=O
targetOrTestSystem: COLO 205 colon
growth, %: 99.3
